Values compiled from the EternaBench riboswitch data.

Test system: MS2 coat protein
Assay: apparent Kd, MS2 coat protein; higher = weaker binding; RNA-MaP array
Settings: ligand present: flavin mononucleotide; designed as: OFF switch for flavin mononucleotide
The threshold is inclusive: apparent Kd of exactly 20 nM counts as 1; values below receive 0.

Consider the following illustrative entries.
[
  {
    "SEQ_TEXT": "AGGAGGCAUAAGAAGGGUACAUGUAUUGGGUGUACAGGAUAUUACAGGUGCCGCACAUGAGGAUCACCCAUGUUAUCAUUGUGC",
    "DISCRETE_LABEL": 1
  },
  {
    "SEQ_TEXT": "AAUACACAUGAGGAUCACCCAUGUAAGGAUAUCAAGCAUCAAACAUUAGAGUGAGGAGUGAGAAGGUACAUCAC",
    "DISCRETE_LABEL": 0
  },
  {
    "SEQ_TEXT": "ACUUCAGAUACAGGAUAUAGCGUAACAUGAGGAUCACCCAUGUCUUGAUGCCUCUGUCGCGACGACUAGAAGGGUAAGCUUUGA",
    "DISCRETE_LABEL": 1
  },
  {
    "SEQ_TEXT": "GUGAUGCCUUACACAUGAGGAUCACCCAUGUGGUGUAAGCGUAGAAGGUGAAUAUAUUCCAUAGUCAAGGAUAUACGAACAAUC",
    "DISCRETE_LABEL": 0
  },
  {
    "SEQ_TEXT": "GAUAAAGCAGGAUAUACAUACCGGCCAUGACUAAAAGAAGGACAUGAGGAUCACCCAUGUAGAAGGGCUUAAAA",
    "DISCRETE_LABEL": 1
  },
  {
    "SEQ_TEXT": "GGAGUGUGAGGAUAUGACGCGCCAGGCACACUUGAAUGCGCUCAGAAGGCACAUGAGGAUCACCCAUGUAAGCA",
    "DISCRETE_LABEL": 0
  }
]

As a next step, examine the sequence that follows.
Check the entry CGUCUGUGAGGAUAUGGUCGAGGUUGGUGAAUUACUUACAUCCAGAAGGCACAUGAGGAUCACCCAUGUACAUC : does apparent Kd equal or exceed 20 nM?
0

---

Test system: MS2 coat protein
Experiment: apparent Kd, MS2 coat protein; higher = weaker binding; RNA-MaP array; FMN 200 µM where present
Conditions: ligand present: flavin mononucleotide; designed as: ON switch for flavin mononucleotide
ATTRIBUTE_MEASURED: apparent Kd
Please state the number and follow it with the unit.

Please review the following examples before continuing.
[
  {
    "SEQ_TEXT": "AAAACAUGAGGAUCACCCAUGUAAAGAUCGGUUAAUGAAAGUGAGGAUAUACAAAAUUUUAUAGAGUAGAAGGCACUGGGUACA",
    "apparent Kd": "0.0301 µM"
  },
  {
    "SEQ_TEXT": "AAAACGGCGCGUCCCGCACCAACUACAGAAGGCCAACAUGAGGAUCACCCAUGUACAAACUAGAUGGAGGAUAUGUAGGUUCUA",
    "apparent Kd": "0.00463 µM"
  },
  {
    "SEQ_TEXT": "AUAUUCUAGAUAGGAUAUACUGAGGUUGAAUGGGUAGAAGGAUCGUGAGAGUGGACUACAUGAGGAUCACCCAUGUUGUUUAUU",
    "apparent Kd": "0.059 µM"
  }
]

For the next question, use this sequence.
# get_value(readout='apparent Kd', item= AGUAACAUACUCAACAUGAGGAUCACCCAUGUACUCUCAUGUAAGGAUAUACAAUCGUAUUGAUAGUAGAAGGUACCAAUUAAG )
0.685 µM

---

Test system: MS2 coat protein
Assay: apparent Kd, MS2 coat protein; higher = weaker binding; RNA-MaP array; FMN 200 µM where present
Conditions: designed as: ON switch for flavin mononucleotide; no ligand
The threshold is inclusive: apparent Kd of exactly 60 nM counts as true; values below receive false.

[
  {
    "SEQ_TEXT": "CGUAACUGCAUAGGAUAUUGAUACAUGAGGAUCACCCAUGUUUUUCGGAUUAGAUAUAUACUUAGCAAGAAGGAUGGAGUUACG",
    "DISCRETE_LABEL": "false"
  }
]

Check the entry GGGUACAUGGGAGGAUAUCAUGUAAAUACAUGAGGAUCACCCAUGUCGAUGGAGACAUCGGAGAUUGAGAAGGCCGAUGUACCG : does apparent Kd equal or exceed 60 nM?
false

Check the entry UUGCUCGUGUGAGGAUAUGCCGCCGUUUCGGCUGCAGAAGGUACUCUUGUACAUGAGGAUCACCCAUGUCUCUGUUGUUUCGUG : does apparent Kd equal or exceed 60 nM?
false

Check the entry AACGCAGAAAUCGCAAUACAUGAGGAUCACCCAUGUAGAUCACAGGAUAUGGUCUAGUCAGUGGUCCAGAAGGGUGAUCAGAAC : does apparent Kd equal or exceed 60 nM?
true

Check the entry GGAAUAUUUACAGGAUAUGUUUUGUUAAGUCGAGCAGAAGGGUGGAUGUCUUACACGGUUUGUUACAUGAGGAUCACCCAUGUC : does apparent Kd equal or exceed 60 nM?
true

Check the entry AGUUUAUAUCGAGGAUAUAAGUCUAGGACAUGAGGAUCACCCAUGUAUGUCUUAGAAGGCGAUAUAAACAGCCUGUUACAGGCA : does apparent Kd equal or exceed 60 nM?
false

Check the entry GCGUUGUUGUAGAAGGUACAUGAAUACUUUUAAUACCUCAAGUAACAUGAGGAUCACCCAUGUAGUAAGGAUAUACAUGAACGC : does apparent Kd equal or exceed 60 nM?
false

Check the entry GAGUAGUUAAAAGGAUAUUGAUUAUUGUAGGAUCAAGAAGGUUUUAACAUGAGGAUCACCCAUGUAGGACUAUUCCUGUGAAAA : does apparent Kd equal or exceed 60 nM?
false

Check the entry GUAGCUAUCGGAGGAUAUUUAUACCGUAAACGGACAUGAGGAUCACCCAUGUGGCGAAAGCCUUGGGAGAAGGCCGAUAGCUAC : does apparent Kd equal or exceed 60 nM?
false

Check the entry UUGGACGUCGUAGGAUAUGUAGGAUAUUCCUACAUGAGGAUCACCCAUGUUGACAUGGAAGAAGGACAGAAGGUCGAUGUCCAU : does apparent Kd equal or exceed 60 nM?
true

Check the entry GACAUACAUGAGGAUCACCCAUGUUCAAGCGGACAAGGAUAUGUGUGGAAACCAUACUAUACAGAAGGUGUCUGUC : does apparent Kd equal or exceed 60 nM?
false

Check the entry AAAAAAAAAAGUCAGGAUAUACAAAUUUUUACAUGAGGAUCACCCAUGUUAAGGAAAAAAAAAAAGUAGAAGGGACAAAAAAAAAA : does apparent Kd equal or exceed 60 nM?
false

Check the entry AGCUACGUUUCGUAGCAGUGUCAUCGAGAAGGCUCAUAAACAUGAGGAUCACCCAUGUAAACAUGGGAGGAUAUCGAUGAUACA : does apparent Kd equal or exceed 60 nM?
false

Check the entry GGUCGUCACAUAUACAUGAGGAUCACCCAUGUAAAAUAACAUGAGGAUAUGGAUCCUAAUUGGAUCCAGAAGGCAUGGACGACC : does apparent Kd equal or exceed 60 nM?
false

Check the entry GACGGGUGGGUAGGAUAUGGCUAUGUCUCAUUGCUAGAAGGACCAGCUGCUACAUGAGGAUCACCCAUGUCGUAGUGCACCCAG : does apparent Kd equal or exceed 60 nM?
true

Check the entry GUGGCGACGUAGAAGGGUGACAUGAGGAUCACCCAUGUGCCGAUAUUUCUCGAGAUAUGUCGGCCACAGGAUAUACGUGCCAUC : does apparent Kd equal or exceed 60 nM?
false

Check the entry AAAACAUGAGGAUCACCCAUGUAAAGAUCGGUUAAUGAAAGUGAGGAUAUACAAAAUUUUAUAGAGUAGAAGGCACUGGGUACA : does apparent Kd equal or exceed 60 nM?
false

Check the entry UUUGGGAGCACAGGAUAUGGCACCUCGAAGGCGCCAGAAGGGUGAUUCUGUUGGUGGCCACAUGAGGAUCACCCAUGUGCCUCC : does apparent Kd equal or exceed 60 nM?
false

---

Tested on: MS2 coat protein
Assay: apparent Kd, MS2 coat protein; higher = weaker binding; RNA-MaP array; tryptophan 2.4 mM where present
Conditions: designed as: ON switch for tryptophan; no ligand
ATTRIBUTE_MEASURED: apparent Kd (nM)
Field: numeric (nM). Do not append units.

[
  {
    "SEQ_TEXT": "GCGUGGUCUGCGGCCGCCACUCAAGGAGCUACAUAGCUCCUAGACAUGAGGAUCACCCAUGUCGCGAGGACCGGGUAGAUUCUCC",
    "UNIT_OF_MEASUREMENT": "nM",
    "apparent Kd": 96
  },
  {
    "SEQ_TEXT": "AAUAUAUAGACGGCCGCCACUGGAACCAAUACAUGAGGAUCACCCAUGUGAAAAGGAUAGGUUCACAGGACCGGGUCUUCAUGUA",
    "UNIT_OF_MEASUREMENT": "nM",
    "apparent Kd": 25.7
  },
  {
    "SEQ_TEXT": "CACGCACGAUCGGCCGCCACUCAUGUAGCUUACAUGAGGAUCACCCAUGUAUUUUCUUUCUUAUAGAGGACCGGGAUCGUGCGUG",
    "UNIT_OF_MEASUREMENT": "nM",
    "apparent Kd": 17.6
  },
  {
    "SEQ_TEXT": "CUAUAUAUAUCGGCCGCCACUUACUCAUGAGGUAACAACAUGAGGAUCACCCAUGUUUGAGGAUCAAGGACCGGGAUAUAUAUAG",
    "UNIT_OF_MEASUREMENT": "nM",
    "apparent Kd": 27.4
  },
  {
    "SEQ_TEXT": "AUUCAUGGAAACAUGACAUACAUAACCGGUCGAGGACCGGUACGGCCGCCACUCGGUUGGUGGCACAUGAGGAUCACCCAUGUUA",
    "UNIT_OF_MEASUREMENT": "nM",
    "apparent Kd": 23.9
  }
]

For the next question, use this sequence.
# get_value(readout='apparent Kd', item= AUAACCCUUGACUAAAACACUAAAUCAGUUCGAGGACCGGUACGGCCGCCACUCGUGUCAAGACAUGAGGAUCACCCAUGUACCU )
35.8
